Would you kindly list MIC for each of these compounds?
# Test system: S. aureus 880 (BR-VRSA), NR-49120
# experiment summary: MIC assay
# Assay type: cell-based, Staphylococcus aureus
# measurement setup: strain BR-VRSA
Answers are plain numbers, in mg/L.

As a guide, the following entries are already answered.
INSERT INTO assay_data (compound, reported) VALUES
  ('CCCCCCCCCCNCCN[C@@]1(C)C[C@H](O[C@H]2[C@H](Oc3c4cc5cc3Oc3ccc(cc3Cl)[C@@H](O)[C@@H](NC(=O)[C@@H](CC(C)C)NC)C(=O)N[C@@H](CC(N)=O)C(=O)N[C@H]5C(=O)N[C@H]3C(=O)N[C@H](C(=O)N[C@H](C(=O)O)c5cc(O)c(CNCP(=O)(O)O)c(O)c5-c5cc3ccc5O)[C@H](O)c3ccc(c(Cl)c3)O4)O[C@H](CO)[C@@H](O)[C@@H]2O)O[C@@H](C)[C@H]1O [Telavancin, reference compound]', 8),
  ('CCCCCCCNC(N)=Nc1ccc(CN[C@@]2(C)C[C@H](O[C@H]3[C@H](Oc4c5cc6cc4Oc4ccc(cc4Cl)[C@@H](O)[C@@H](NC(=O)[C@@H](CC(C)C)NC)C(=O)N[C@@H](CC(N)=O)C(=O)N[C@H]6C(=O)N[C@H]4C(=O)N[C@H](C(=O)N[C@H](C(=O)O)c6cc(O)cc(O)c6-c6cc4ccc6O)[C@H](O)c4ccc(c(Cl)c4)O5)O[C@H](CO)[C@@H](O)[C@@H]3O)O[C@@H](C)[C@H]2O)cc1', 4);

// query Requested read-out MIC, target or system S. aureus 880 (BR-VRSA), NR-49120, entry `CCCCCCN(CCCCCC)C(N)=Nc1ccc(CN[C@@]2(C)C[C@H](O[C@H]3[C@H](Oc4c5cc6cc4Oc4ccc(cc4Cl)[C@@H](O)[C@@H](NC(=O)[C@@H](CC(C)C)NC)C(=O)N[C@@H](CC(N)=O)C(=O)N[C@H]6C(=O)N[C@H]4C(=O)N[C@H](C(=O)N[C@H](C(=O)O)c6cc(O)cc(O)c6-c6cc4ccc6O)[C@H](O)c4ccc(c(Cl)c4)O5)O[C@H](CO)[C@@H](O)[C@@H]3O)O[C@@H](C)[C@H]2O)cc1`
// result 1

Source of measurements: patent US20230174584A1
